System: pigweed
experimental_protocol: Test A pre-/postemergence herbicide test
Type: in vivo, Amaranthus retroflexus
condition_context: 125 g ai/ha; visual rating, 0 to 100 scale, 0 no effect, 100 complete control; approximately 10 days; preemergence
observed_property: Plant response rating, Pigweed
Kindly provide the number alone.

Worked cases, Plant response rating, Pigweed given:
{"columns": ["compound", "measurement"],
 "data": [
  ["Cc1ccc(C2CNC(=O)C2C(=O)Nc2cccc(F)c2)cc1 (racemic)", 0],
  ["Cc1ccc(C2CNC(=O)C2C(=O)Nc2cccc(F)c2F)cc1 (racemic)", 0],
  ["O=C1NCC(c2cccc(OC(F)F)c2)C1C(=O)Nc1ccccc1Cl (stereo not shown)", 0],
  ["CCc1cccc(C2CNC(=O)C2C(=O)Nc2ccc(F)c(F)c2F)c1 (racemic)", 20]
]}

Challenge: Using known records, supply Plant response rating, Pigweed for O=C1NCC(c2ccc3c(c2)OC(F)(F)O3)C1C(=O)Nc1ccccc1F (racemic)
Response given: 20

Challenge: Supply recorded Plant response rating, Pigweed for COc1ccc(C2CNC(=O)C2C(=O)Nc2ccccc2F)cc1F (racemic) here.
Response given: 0

Challenge: Could you please provide reported Plant response rating, Pigweed for O=C1NCC(c2ccc(Cl)cc2)C1C(=O)Nc1ccccc1F (stereo not shown) ? Thanks!
Response given: 20

Challenge: Give the value of Plant response rating, Pigweed reported for the following: O=C1NCC(c2cccc(OC(F)F)c2)C1C(=O)Nc1ccccc1F (stereo not shown)
Response given: 20

Challenge: Entry O=C1NCC(c2ccc(OC(F)F)cc2)C1C(=O)Nc1ccccc1Br (stereo not shown) needs its Plant response rating, Pigweed filled in; supply it.
Response given: 0

----------
# Plant response rating, Ryegrass, Italian values compiled below
Test system: ryegrass, Italian
experimental_protocol: Test C pre-/postemergence herbicide test
Assay type: in vivo, Lolium multiflorum
condition_context: Preemergence, 125 g ai/ha; scale 0 to 100 (0 no effect, 100 complete control)
# respond with the number and nothing more

Worked set:
{"columns": ["compound", "Plant response rating, Ryegrass, Italian"],
 "data": [
  ["O=C1NCC(c2cccc(Br)c2)C1C(=O)Nc1ccccc1F (stereo not drawn) [Compound 66]", 0],
  ["O=C1NCC(c2cccc(C(F)F)c2)C1C(=O)Nc1cccc(F)c1F (racemic) [Compound 211]", 40],
  ["O=C1NCC(c2cccc(Br)c2)C1C(=O)Nc1cccc(F)c1F (stereo not drawn) [Compound 64]", 0]
]}

Challenge: Under ryegrass, Italian, report Plant response rating, Ryegrass, Italian for O=C1NCC(c2ccc(C(F)(F)F)cc2)C1C(=O)Nc1ccc(F)c(F)c1F (stereo not drawn) [Compound 232]
Response given: 20

Challenge: Output reported Plant response rating, Ryegrass, Italian of the compound O=C1NCC(c2ccc3c(c2)OC(F)(F)O3)C1C(=O)Nc1cccc(F)c1F (stereo not drawn) [Compound 62] on ryegrass, Italian.
Response given: 30

Challenge: Identify measured Plant response rating, Ryegrass, Italian obtained with ryegrass, Italian for O=C1NCC(c2ccc(C(F)(F)F)nc2)C1C(=O)Nc1cccc(F)c1F (racemic) [Compound 263] .
Response given: 0

----------
Recorded Plant response rating, Barnyardgrass by entry
System: barnyardgrass
experimental_protocol: Test C flooded paddy test
Type: in vivo, Echinochloa crus-galli
condition_context: Flood; 500 g ai/ha; scale 0 to 100
In your answer, state the number alone without any accompanying words.

{"columns": ["compound", "measurement"],
 "data": [
  ["O=C1NCC(c2cccc(C(F)(F)F)c2)C1C(=O)Nc1nncs1 (racemic)", 0],
  ["O=C1NCC(c2cccc(C(F)(F)F)c2)C1C(=O)Nc1cccc(Cl)c1F (centres unmarked)", 40],
  ["O=C1NCC(c2cccc(C(F)(F)F)c2)C1C(=O)Nc1cccc(F)c1 (racemic)", 45],
  ["O=C1NC[C@@H](c2ccc(F)c(F)c2)[C@@H]1C(=O)Nc1ccccc1F", 0]
]}

Let us examine a further case.
Challenge: Name the recorded Plant response rating, Barnyardgrass of the compound listed here: O=C1NCC(c2cccc(C(F)(F)F)c2)C1C(=O)Nc1ncc(Cl)s1 (racemic)
Response given: 0

----------
System: ragweed
experimental_protocol: Test C pre-/postemergence herbicide test
Assay type: in vivo, Ambrosia elatior
condition_context: Preemergence, 250 g ai/ha
observed_property: Plant response rating (scale of 0 to 100), Ragweed
Number only, please.

{"columns": ["compound", "assay_target", "measurement"],
 "data": [
  ["O=C1NCC(c2ccc(C(F)(F)F)c(F)c2)C1C(=O)Nc1ccccc1F (racemic)", "ragweed", 40]
]}

Kindly review the next compound as well.
Challenge: Report measured Plant response rating (scale of 0 to 100), Ragweed; entry is O=C1NCC(c2ccc(F)cc2)C1C(=O)Nc1cccc(F)c1F (racemic)
Response given: 80

----------
Tested on: barnyardgrass
experimental_protocol: Test A pre-/postemergence herbicide test
Assay type: in vivo, Echinochloa crus-galli
condition_context: Postemergence, 500 g ai/ha; 0 to 100 scale (0 no effect, 100 complete control)
List of Plant response rating, Barnyardgrass values.
Respond numerically, and do not add a unit to the figure.

{"columns": ["compound", "Plant response rating, Barnyardgrass"],
 "data": [
  ["O=C1NCC(c2ccc(C(F)(F)F)c(F)c2)C1C(=O)Nc1cccc(F)c1F (racemic) [Compound 247]", 80],
  ["O=C1NCC(c2ccc(OC(F)F)cc2)C1C(=O)Nc1ccccc1C(F)(F)F (stereo not shown) [Compound 348]", 50],
  ["CN1CC(c2ccc(C(F)(F)F)cc2)C(C(=O)Nc2ccccc2F)C1=O (stereo not shown) [Compound 304]", 90]
]}

Now for the compound whose Plant response rating, Barnyardgrass we want.
Challenge: // fetch Plant response rating, Barnyardgrass given entry O=C1NCC(c2ccc3c(c2)OC(F)(F)O3)C1C(=O)Nc1cccc(F)c1F (stereo not shown) [Compound 62]
Response given: 80

----------
// reported Plant response rating Sunflower per item
Tested on: sunflower
experimental_protocol: Test C pre-/postemergence herbicide test
Format: in vivo, Helianthus annuus
condition_context: Preemergence, 125 g ai/ha; scale 0 to 100 (0 no effect, 100 complete control)
Just the number, please, no unit after it.

Challenge: For O=C1NCC(c2ccc(F)c(Cl)c2)C1C(=O)Nc1cccc(F)c1F (stereo not shown) , write its Plant response rating Sunflower.
Response given: 15

Challenge: Give a short answer stating reported Plant response rating Sunflower for O=C1NCC(c2cccc(OC(F)(F)F)c2)C1C(=O)Nc1cccc(F)c1F (stereo not shown) .
Response given: 10

Challenge: Specify measured Plant response rating Sunflower for Cc1ccccc1NC(=O)C1C(=O)NCC1c1cc(F)c(F)c(F)c1 (racemic) .
Response given: 10

Challenge: # return recorded Plant response rating Sunflower for entry O=C1NCC(c2ccccc2)C1C(=O)Nc1ccccc1F (racemic)
Response given: 0

----------
The reader will find reported Plant response rating, Oilseed Rape values listed item by item below.
Tested on: oilseed rape
experimental_protocol: Test C pre-/postemergence herbicide test
Format: in vivo, Brassica napus
condition_context: Postemergence, 125 g ai/ha; scale 0 to 100 (0 no effect, 100 complete control)
Hey, just send me the number, nothing else.

{"columns": ["compound", "assay_target", "Plant response rating, Oilseed Rape"],
 "data": [
  ["O=C1NCC(c2cc(F)cc(F)c2)C1C(=O)Nc1ccc(F)cc1F (racemic) [Compound 278]", "oilseed rape", 5],
  ["Cc1cccc(NC(=O)C2C(=O)NCC2c2cccc(C(F)(F)F)c2)c1 (centres unmarked) [Compound 317]", "oilseed rape", 0],
  ["O=C1NCC(c2cccc(OC(F)F)c2)C1C(=O)Nc1cccc(F)c1F (centres unmarked) [Compound 324]", "oilseed rape", 0],
  ["CN1CC(c2cccc(C(F)(F)F)c2)C(C(=O)Nc2ccccc2F)C1=O (centres unmarked) [Compound 277]", "oilseed rape", 0]
]}

Now consider the entry below.
Challenge: GET Plant response rating, Oilseed Rape | system: oilseed rape | item: O=C1NCC(c2ccc(F)cc2)C1C(=O)Nc1cccc(F)c1F (racemic) [Compound 119]
Response given: 0

----------
Test system: pigweed
experimental_protocol: Test A pre-/postemergence herbicide test
Assay type: in vivo, Amaranthus retroflexus
condition_context: Postemergence, 125 g ai/ha; 0 to 100 scale, 0 no effect, 100 complete control
observed_property: Plant response rating, Pigweed
Answer with a number only.

Previously resolved entries follow.
{"columns": ["molecule", "Plant response rating, Pigweed"],
 "data": [
  ["O=C1NCC(c2ccc(F)c(C(F)(F)F)c2)C1C(=O)Nc1ccccc1F (racemic)", 50],
  ["O=C1NCC(c2ccc(F)c(F)c2)C1C(=O)Nc1cccc(F)c1F (racemic)", 0],
  ["O=C1NC[C@@H](c2ccc(F)c(F)c2)[C@@H]1C(=O)Nc1ccccc1F", 0]
]}

Challenge: Specify measured Plant response rating, Pigweed for O=C1NCC(c2cccc(C(F)(F)F)c2)C1C(=O)Nc1nc(C(F)(F)F)co1 (racemic) .
Response given: 0

Challenge: Please report the measured Plant response rating, Pigweed for O=C1NCC(c2cccc(Br)c2)C1C(=O)Nc1cccc(F)c1F (centres unmarked)
Response given: 0

Challenge: Determine its reported Plant response rating, Pigweed: O=C1NCC(c2ccc(F)c(C(F)(F)F)c2)C1C(=O)Nc1ccccc1C(F)(F)F (racemic)
Response given: 50

Challenge: Name the recorded Plant response rating, Pigweed of the item O=C1NCC(c2ccc(F)c(F)c2)C1C(=O)Nc1ccccc1Br (centres unmarked) in your answer.
Response given: 0

Challenge: Answer with the recorded Plant response rating, Pigweed for the molecule listed here: Cc1ccc(C2CNC(=O)C2C(=O)Nc2ccccc2F)cc1F (racemic)
Response given: 0
